# EXPERIMENTAL TARGET: MLKL (Homo sapiens)
# Sequence (Q8NB16 whole entry): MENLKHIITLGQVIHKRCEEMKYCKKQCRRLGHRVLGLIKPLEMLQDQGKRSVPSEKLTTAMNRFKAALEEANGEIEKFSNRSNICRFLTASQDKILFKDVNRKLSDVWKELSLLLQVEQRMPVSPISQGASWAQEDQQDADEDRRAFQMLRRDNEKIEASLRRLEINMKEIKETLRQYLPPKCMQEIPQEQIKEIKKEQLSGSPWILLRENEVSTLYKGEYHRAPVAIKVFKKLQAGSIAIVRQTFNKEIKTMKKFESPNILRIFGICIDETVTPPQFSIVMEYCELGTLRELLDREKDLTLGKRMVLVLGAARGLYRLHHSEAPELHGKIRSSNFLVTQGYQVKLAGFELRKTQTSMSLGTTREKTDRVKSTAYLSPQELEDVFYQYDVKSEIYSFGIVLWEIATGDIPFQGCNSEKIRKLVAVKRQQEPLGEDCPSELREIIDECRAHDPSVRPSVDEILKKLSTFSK
# ASSAY TEXT: MLKL degradation assay in HepG2 cell line (western blot)
# Assay type: cell-based
# Design: endogenous in cells; host or cells: HepG2 or HaCaT
# EXPERIMENTAL PARAMETERS: compound 1 μM; cell line not given
Item-by-item account of Degradation assay (Degradation %) 1 μM
Expressed in %, but write only the number.

Answered cases to consult:
{"columns": ["COMPOUND", "EXPERIMENTAL TARGET", "TEST RESULT"],
 "data": [
  ["Nc1ncc(-c2cnn(C3CCN(CCCN4CCN(C(=O)CCc5ccc6c(c5)C(=O)N(C5CCC(=O)NC5=O)C6=O)CC4)CC3)c2)nc1C(=O)O[C@@H](C(=O)Nc1ccc(F)cc1)c1ccccc1 (stereo partly drawn)", "MLKL (Homo sapiens)", 79.04],
  ["Nc1ncc(-c2cnn(C3CCN(CCCN4CCN(C(=O)CCc5cccc6c5C(=O)N(C5CCC(=O)NC5=O)C6=O)CC4)CC3)c2)nc1C(=O)O[C@@H](C(=O)Nc1ccc(F)cc1)c1ccccc1 (stereo partly drawn)", "MLKL (Homo sapiens)", 81.82]
]}

The record that follows has no Degradation assay (Degradation %) 1 μM shown yet.
Request: Please give measured Degradation assay (Degradation %) 1 μM of the following entry: Nc1ncc(-c2cnn(C3CCN(CCOC4CCN(c5cccc6c5C(=O)N(C5CCC(=O)NC5=O)C6=O)CC4)CC3)c2)nc1C(=O)OC(C(=O)Nc1ccc(F)cc1)c1ccccc1 (stereo not drawn)
Result: 80.74

These data points were gathered from patent US20240252488A1.
